B1: SCNN1D (parent)
chain: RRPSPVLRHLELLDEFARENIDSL

# Variants of: B1
# ASSAY_PROTOCOL: protein stability index of a GFP-peptide fusion (GPS, HEK-293T) (PSI 1-6); higher = more stable;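 further: lentivirally expressed fusions sorted by FACS into six bins by GFP to DsRed ratio, PSI derived from sequencing read proportions per bin multiplied by bin number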
# REPORTED_CONDITIONS: c terminus: a fixed tail appended
READOUT: protein stability index
Answers are plain numbers.

Would you mind giving protein stability index for every variant in the list below?
1. RRPSPVLRHLELLPEFARENIDSL [D14P]
2. RRPSPVLRHLELLDEFARENIASL [D22A]
3. RRPSPVLRHLELLDEFARENIHSL [D22H]
4. RRPSPVLRHLELLDEFARLNIDSL [E19L]
5. RRPSPVDRHLELLDEFARENIDSL [L7D]

1. 2.92
2. 2.97
3. 2.87
4. 2.52
5. 4.49

Can you give me protein stability index for all of these, one by one?
1. RRPSPVNRHLELLDEFARENIDSL [L7N]
2. RRPSPVLRHLELLEEFARENIDSL [D14E]
3. RRRSPVLRHLELLDEFARENIDSL [P3R]
4. RRPSPVLRHLELLDEFARSNIDSL [E19S]
5. RRPCPVLRHLELLDEFARENIDSL [S4C]
6. RRPSPVLRHLELLNEFARENIDSL [D14N]
7. RRPSPVLRHLELLDYFARENIDSL [E15Y]

[3.6, 2.56, 2.85, 2.74, 2.99, 2.74, 1.83]

Respectfully, I request protein stability index for each entry included below.
1. RRPSPVLRHLELLDEFGRENIDSL [A17G]
2. RRPSPVLRHLELLDEFARENIDCL [S23C]
3. RRPSPVLRHLELLDTFARENIDSL [E15T]
4. RRPSPVLRHLELLDENARENIDSL [F16N]
5. RRPSPVLRHNELLDEFARENIDSL [L10N]
6. RRPSPVLRHLELMDEFARENIDSL [L13M]
7. RRPSPVLHHLELLDEFARENIDSL [R8H]

1: 3.72; 2: 2.5; 3: 2.92; 4: 3.88; 5: 4.23; 6: 3.59; 7: 3.61

// data source = the supplement of paper PMC10567573
